conditions used: both, human, plasma, po, AUCinf, geometric mean (geometric %CV), ertugliflozin 7.5-mg/metformin 1000-mg FDC tablet, single oral dose, healthy subjects, fasted
metric: AUC(0-inf) (ng·h/mL)
Please state the figure in ng·h/mL; there is no need to write the unit.

response.value for CCOc1ccc(Cc2cc([C@]34OC[C@](CO)(O3)[C@@H](O)[C@H](O)[C@H]4O)ccc2Cl)cc1 (field: AUC(0-inf)) = 655

----------
conditions used: both, human, plasma, po, AUClast, geometric mean (geometric %CV), ertugliflozin 15-mg/sitagliptin 100-mg FDC tablet, single oral dose, healthy subjects, fasted
metric: AUC(0-t) (µM·h)
Please state the figure in µM·h; there is no need to write the unit.

response.value for N[C@@H](CC(=O)N1CCn2c(nnc2C(F)(F)F)C1)Cc1cc(F)c(F)cc1F (field: AUC(0-t)) = 7.3
